system: human TRPV3 receptors (Homo sapiens (Human))
test: Calcium flux assay (FLIPR TETRA), inhibition of the 2-APB response
runConditions: recombinant HEK293 cells stably expressing TRPV3, Calcium-4 dye, 2-APB at its EC80
pIC50: −log10 of the molar value.
Threshold check on pIC50: at or above 6 gives 1, strictly below gives -1.

Worked examples follow.
{"columns": ["compound", "system", "class"],
 "data": [
  ["CC(C)[C@H](CO)NCc1cccc(-c2ccc(C(F)(F)F)cc2C(F)(F)F)n1", "human TRPV3 receptors (Homo sapiens (Human))", 1],
  ["CC(C)(O)[C@H](CO)NCc1ccnc(-c2ccc(S(=O)(=O)C(F)(F)F)cc2)n1", "human TRPV3 receptors (Homo sapiens (Human))", -1],
  ["C[C@@H](O)[C@H](CO)NCc1ccnc(-c2ccc(C(F)(F)F)cc2)n1", "human TRPV3 receptors (Homo sapiens (Human))", -1],
  ["CC(C)[C@@H](NCc1nc(-c2ccc(C(F)(F)F)nc2)ccc1F)C(N)=O", "human TRPV3 receptors (Homo sapiens (Human))", -1],
  ["OC(CNCc1ccnc(-c2ccc(C(F)(F)F)cc2)n1)c1ccccc1 (stereo not drawn)", "human TRPV3 receptors (Homo sapiens (Human))", -1],
  ["CC(C)[C@H](CO)NCc1cccc(C#Cc2ccc(S(F)(F)(F)(F)F)cc2)n1", "human TRPV3 receptors (Homo sapiens (Human))", 1],
  ["CC(C)C[C@H](CO)NCc1ccnc(-c2ccc(C(F)(F)F)cc2)n1", "human TRPV3 receptors (Homo sapiens (Human))", -1],
  ["CC(C)[C@H](CO)NCc1nc(-c2cc(F)c(F)c(F)c2)ccc1F", "human TRPV3 receptors (Homo sapiens (Human))", 1],
  ["Cc1ccc(S(=O)(=O)N(C)C)cc1-c1ccc(F)c(CN[C@@H](CO)C(C)C)n1", "human TRPV3 receptors (Homo sapiens (Human))", -1],
  ["CC(C)[C@H](CO)NCc1nc(N2Cc3ccc(F)cc3C2)ccc1F", "human TRPV3 receptors (Homo sapiens (Human))", 1]
]}

**Query** Dear colleague, could you confirm whether `CC(C)[C@H](CO)NCc1nc(-c2cc3c(OCc4ccccc4)cccc3n2C(=O)OC(C)(C)C)ccc1F` has pIC50 at or above 6?
**Result** 1

**Query** Dear colleague, could you confirm whether `CC(C)[C@H](CO)NCc1cccc(-c2ccccc2)n1` has pIC50 at or above 6?
**Result** -1

**Query** Dear colleague, could you confirm whether `CC(C)[C@H](CO)NCc1cccc(C#Cc2ccc(Cl)cc2)n1` has pIC50 at or above 6?
**Result** 1

----------
system: human TRPV3 receptors (Homo sapiens (Human))
test: Calcium flux assay (FLIPR TETRA), inhibition of the 2-APB response
runConditions: recombinant HEK293 cells stably expressing TRPV3, Calcium-4 dye, 2-APB at its EC80
resultType: pIC50
Convention used: pIC50 is expressed as -log10 of the molar concentration.

{"columns": ["compound", "system", "pIC50"],
 "data": [
  ["CC(C)[C@H](CO)NCc1cccc(-c2ccc(F)c(C#N)c2)n1 [Example 269]", "human TRPV3 receptors (Homo sapiens (Human))", 6.36]
]}

Kindly note the recorded pIC50 for C[C@@H](O)[C@@H](CO)NCc1ccnc(-c2ccc(S(=O)(=O)C(F)(F)F)cc2)n1 [Example 212] , which is 5.60

----------
system: human TRPV3 receptors (Homo sapiens (Human))
test: Calcium flux assay (FLIPR TETRA), inhibition of the 2-APB response
runConditions: recombinant HEK293 cells stably expressing TRPV3, Calcium-4 dye, 2-APB at its EC80
Mark Met for IC50 under 2 µM, Not met if at or over.

Worked examples follow.
{"columns": ["molecule", "class"],
 "data": [
  ["COCC(CO)NCc1ccnc(-c2ccc(C(F)(F)F)cc2)n1 (stereo not drawn)", "Not met"],
  ["OC[C@H](NCc1ccnc(-c2ccc(C(F)(F)F)cc2)n1)c1ccccc1", "Not met"],
  ["CC(C)[C@H](CO)NCc1nc(-c2cccc(C(=O)N(C(C)C)C(C)C)c2)ccc1F", "Met"],
  ["COCC(CO)NCc1ccnc(-c2ccc(C(F)(F)F)nc2)n1 (stereo not drawn)", "Not met"]
]}

**Query** Does this molecule meet the criterion IC50 < 2 µM? `CC(C)(C)[C@H](CO)NCc1nc(-c2ccc(C(F)(F)F)nc2)ccc1F`
**Result** Met

**Query** Does this molecule meet the criterion IC50 < 2 µM? `CC(C)[C@H](CO)NCc1nccc(-c2ccc(F)cc2)n1`
**Result** Not met

**Query** Does this molecule meet the criterion IC50 < 2 µM? `CC[C@H](CO)NCc1nc(-c2ccc(C(F)(F)F)nc2)ccc1F`
**Result** Not met

**Query** Does this molecule meet the criterion IC50 < 2 µM? `CC[C@H](C)[C@@H](CO)NCc1cccc(-c2ccc(C(F)(F)F)cc2)n1`
**Result** Not met

**Query** Does this molecule meet the criterion IC50 < 2 µM? `C[C@@H](O)[C@H](NCc1nc(-c2ccc(C(F)(F)F)nc2)ccc1F)C(N)=O`
**Result** Not met

**Query** Does this molecule meet the criterion IC50 < 2 µM? CC(C)[C@H](CO)NCc1nc(C2CCc3ccccc3C2)ccc1F (stereo partly drawn)
**Result** Met

----------
Overview of reported pIC50 across a group of molecules:
system: UniProt:Q8NET8
test: Calcium flux assay (FLIPR TETRA), inhibition of the 2-APB response
runConditions: recombinant HEK293 cells stably expressing TRPV3, Calcium-4 dye, 2-APB at its EC80
Convention used: pIC50 is expressed as -log10 of the molar concentration.

# annotated cases, reported pIC50 shown
{"columns": ["molecule", "pIC50"],
 "data": [
  ["CC[C@H](CO)NCc1ccnc(-c2ccc(S(=O)(=O)C(F)(F)F)cc2)n1", 5.83],
  ["COc1ccc(-c2ccc(C(F)(F)F)nc2)nc1CN[C@@H](CO)C(C)C", 4.82],
  ["C[C@@H](O)[C@@H](CO)NCc1nc(-c2ccc(C(F)(F)F)nc2)ccc1F", 5.21],
  ["CC1CCC(c2ccc(F)c(CN[C@@H](CO)C(C)C)n2)CC1 (stereo partly drawn)", 5.99],
  ["CCC1CCC(c2ccc(F)c(CN[C@@H](CO)C(C)C)n2)CC1 (stereo partly drawn)", 6.11],
  ["CC(C)[C@H](CO)NCc1nc(C2CCC(C(C)(C)C)CC2)ccc1F (stereo partly drawn)", 6.10],
  ["CC(C)[C@H](CO)NCc1nc(N2CCC(C(F)(F)F)C2)ccc1F (stereo partly drawn)", 6.38],
  ["CC(O)C(C)NCc1nc(-c2ccc(C(F)(F)F)nc2)ccc1F (stereo not drawn)", 5.59],
  ["CC(C)[C@H](CO)NCc1nc(-c2cccc(S(=O)(=O)N(C)C(C)(C)C)c2)ccc1F", 6.72],
  ["C=C(c1ccc(F)cc1)c1ccc(F)c(CN[C@@H](CO)C(C)C)n1", 5.79]
]}

Kindly note the recorded pIC50 for `CC(C)[C@H](CO)NCc1nc(-c2cc(F)cc(F)c2)ccc1F` , which is 7.10

Kindly note the recorded pIC50 for `OC[C@H](NCc1nc(-c2ccc(C(F)(F)F)cc2)ccc1F)C1CCCCC1` , which is 6.15

Kindly note the recorded pIC50 for `CC(C)[C@H](CO)NCc1nc([C@H]2CC[C@@H](C(F)(F)F)CC2)ccc1F` , which is 6.47

Kindly note the recorded pIC50 for CC(C)[C@H](CO)NCc1nc(C2CCC(C(F)(F)F)CC2)ccc1F (stereo partly drawn) , which is 6.51

----------
system: human TRPV3 receptors (Homo sapiens (Human), UniProt Q8NET8)
Sequence (Q8NET8 whole entry): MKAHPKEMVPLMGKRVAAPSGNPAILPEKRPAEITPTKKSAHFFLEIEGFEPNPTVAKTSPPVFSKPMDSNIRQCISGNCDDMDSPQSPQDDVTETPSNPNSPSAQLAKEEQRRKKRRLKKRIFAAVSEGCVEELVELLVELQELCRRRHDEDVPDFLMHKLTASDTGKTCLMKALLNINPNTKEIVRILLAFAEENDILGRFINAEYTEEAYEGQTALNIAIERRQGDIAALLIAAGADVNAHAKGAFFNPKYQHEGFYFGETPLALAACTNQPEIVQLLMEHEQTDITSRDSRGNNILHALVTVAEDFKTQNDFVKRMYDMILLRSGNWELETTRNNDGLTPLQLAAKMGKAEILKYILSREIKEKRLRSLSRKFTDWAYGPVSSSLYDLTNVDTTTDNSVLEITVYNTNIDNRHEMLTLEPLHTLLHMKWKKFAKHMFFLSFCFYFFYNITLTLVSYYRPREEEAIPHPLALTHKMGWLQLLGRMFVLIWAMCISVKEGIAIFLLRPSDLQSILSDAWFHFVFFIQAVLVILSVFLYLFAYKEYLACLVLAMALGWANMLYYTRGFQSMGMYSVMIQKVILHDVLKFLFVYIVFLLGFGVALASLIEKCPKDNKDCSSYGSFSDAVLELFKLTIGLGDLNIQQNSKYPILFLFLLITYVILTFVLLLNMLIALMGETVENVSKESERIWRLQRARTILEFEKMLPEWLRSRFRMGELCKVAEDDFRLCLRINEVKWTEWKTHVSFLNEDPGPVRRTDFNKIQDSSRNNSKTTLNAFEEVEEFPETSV
test: Calcium flux assay (FLIPR TETRA), inhibition of the 2-APB response
runConditions: recombinant HEK293 cells stably expressing TRPV3, Calcium-4 dye, 2-APB at its EC80
pIC50: −log10 of the molar value.
resultType: pIC50

{"columns": ["molecule", "measured"],
 "data": [
  ["O[C@H]1CCCC[C@@H]1CNCc1ccnc(-c2ccc(C(F)(F)F)cc2)n1 [Example 165]", "< 4.70"]
]}

Kindly note the recorded pIC50 for OC1(CNCc2ccnc(-c3ccc(C(F)(F)F)cc3)n2)CCCC1 [Example 177] , which is < 4.70

Kindly note the recorded pIC50 for CC(C)[C@@H](CO)NCc1ccnc(-c2ccc(C(F)(F)F)cc2)n1 [Example 155] , which is < 4.70

Kindly note the recorded pIC50 for CC[C@H](CO)NCc1ccnc(-c2ccc(C(F)(F)F)cn2)n1 [Example 194] , which is < 4.70

Kindly note the recorded pIC50 for CC(C)[C@@H](CO)NCc1nc(-c2ccc(C(F)(F)F)nc2)ccc1F [Example 35] , which is < 4.70
